- TARGET_DESC: Replicase polyprotein 1ab (Severe acute respiratory syndrome coronavirus 2, UniProt P0DTD1)
- EXPERIMENT_SUMMARY: Binding affinity to C-terminal His6-tagged recombinant SARS-CoV-2 MPro transfected in Escherichia coli BL21 (DE3) assessed as dissociation constant by Cheng-Prusoff equation analysis
Non-standard residues stand in square brackets, D forms with d. Residues, ends and D or L forms follow the SMILES beside them. *: point of attachment. Tic = O=C(O)[C@@H]1Cc2ccccc2CN1; Octanoyl = CCCCCCCC(=O)*; Boc = CC(C)(C)OC(=O)*
MEASUREMENT_KIND: pKd
When answering, recall that pKd equals minus log10 of the concentration in mol/L, and write that number alone.

Examples with answers:
O=C[C@H](Cc1c[nH]cn1)NC(=O)[C@H](Cc1c[nH]cn1)NC(=O)[C@@H]1Cc2ccccc2CN1 (H-[Tic]-His-His-aldehyde)	4.72
CC(C)(C)OC(=O)NCC(=O)N[C@@H](Cc1ccccc1)C(=O)N[C@H](C=O)Cc1c[nH]cn1 (Boc-Gly-Phe-His-aldehyde)	5.49
CC(=O)NCC(=O)N[C@@H](Cc1ccccc1)C(=O)N[C@H](C=O)Cc1c[nH]cn1 (Ac-Gly-Phe-His-aldehyde)	5.90

Moving on to the next compound.
Endpoint output: pKd of CCCCCCCC(=O)NCC(=O)N[C@@H](Cc1ccccc1)C(=O)N[C@H](C=O)Cc1c[nH]cn1 (Octanoyl-Gly-Phe-His-aldehyde) . Value?
5.92

====

- EXPERIMENT_SUMMARY: Tmax in C57BL6 mouse at 25 mg/kg, po
- Format: ADME, organism-based
- CONDITIONS: in vivo
Residues, ends and D or L forms follow the SMILES beside them. *: point of attachment. Octanoyl = CCCCCCCC(=O)*
MEASUREMENT_KIND: Tmax (min)
The answer is to be given in min; state only the numeric part.

Endpoint output: Tmax of CCCCCCCC(=O)NCC(=O)N[C@@H](Cc1ccccc1)C(=O)N[C@H](C=O)Cc1c[nH]cn1 (Octanoyl-Gly-Phe-His-aldehyde) . Value?
30

====

Documented pIC50 across a set of compounds
- TARGET_DESC: Replicase polyprotein 1ab (Severe acute respiratory syndrome coronavirus 2, UniProt P0DTD1)
- EXPERIMENT_SUMMARY: Inhibition of C-terminal His6-tagged recombinant SARS-CoV-2 MPro transfected in Escherichia coli BL21 (DE3) using Dabcyl-KTSAVLQSGFRKM-E(Edans)-NH2 as substrate preincubated for 15 mins followed by substrate addition measured after 30 mins by FRET assay
Residues, ends and D or L forms follow the SMILES beside them. *: point of attachment. Octanoyl = CCCCCCCC(=O)*
When answering, recall that pIC50 equals minus log10 of the concentration in mol/L, and write that number alone.

CCCCCCCC(=O)NCC(=O)N[C@@H](Cc1ccccc1)C(=O)N[C@H](C=O)Cc1c[nH]cn1 (Octanoyl-Gly-Phe-His-aldehyde)	5.63

Moving on to the next compound.
Endpoint output: pIC50 of CC(=O)NCC(=O)N[C@@H](Cc1ccc(O)cc1)C(=O)N[C@H](C=O)Cc1c[nH]cn1 (Ac-Gly-Tyr-His-aldehyde) . Value?
3.70

====

- TARGET_DESC: Replicase polyprotein 1ab (Severe acute respiratory syndrome coronavirus 2, UniProt P0DTD1)
- EXPERIMENT_SUMMARY: Inhibition of C-terminal His6-tagged recombinant SARS-CoV-2 MPro transfected in Escherichia coli BL21 (DE3) using Dabcyl-KTSAVLQSGFRKM-E(Edans)-NH2 as substrate preincubated for 15 mins followed by substrate addition measured after 30 mins by FRET assay
Non-standard residues stand in square brackets, D forms with d. Residues, ends and D or L forms follow the SMILES beside them. *: point of attachment. Hyp = O=C(O)[C@@H]1C[C@@H](O)CN1; Tic = O=C(O)[C@@H]1Cc2ccccc2CN1; Boc = CC(C)(C)OC(=O)*; tBu = CC(C)(C)*
Documented IC50 across a set of molecules

CC(C)(C)O[C@H]1CN[C@H](C(=O)N[C@@H](Cc2c[nH]cn2)C(=O)N[C@H](C=O)Cc2c[nH]cn2)C1 (H-[Hyp](tBu)-His-His-aldehyde)	> 170 µM
O=C[C@H](Cc1c[nH]cn1)NC(=O)[C@H](Cc1c[nH]cn1)NC(=O)[C@@H]1Cc2ccccc2CN1 (H-[Tic]-His-His-aldehyde)	37.8 µM
CC(=O)NCC(=O)N[C@@H](Cc1c[nH]cn1)C(=O)N[C@H](C=O)Cc1ccc(O)cc1 (Ac-Gly-His-Tyr-aldehyde)	> 425 µM
CC(C)(C)OC(=O)NCC(=O)N[C@@H](Cc1ccccc1)C(=O)N[C@H](C=O)Cc1c[nH]cn1 (Boc-Gly-Phe-His-aldehyde)	6.49 µM

Endpoint output: IC50 of CC(=O)NCC(=O)N[C@@H](Cc1ccccc1)C(=O)N[C@H](C=O)Cc1c[nH]cn1 (Ac-Gly-Phe-His-aldehyde) . Value?
2.51 µM
